target: CK2α (full-length, NanoLuc fusion) (Homo sapiens); assay: cell-based; set-up: species or system HEK293T
REPORTED_PROPERTY: IC50

Specify reported IC50 for the compound shown: CC(C)(C)OC(=O)N(CCOCCO)c1ccn2ncc(-c3ccc(C#N)c(O)c3)c2n1 [compound 23]
> 50 µM

###

target: CK2α (full-length, NanoLuc fusion) (Homo sapiens, UniProt P68400); experiment: NanoBRET tracer displacement, intact HEK293T; type: cell-based; conditions: intact cells, […] h, […] °C, tracer competition
Sequence (P68400 whole entry, the tested form may be a part): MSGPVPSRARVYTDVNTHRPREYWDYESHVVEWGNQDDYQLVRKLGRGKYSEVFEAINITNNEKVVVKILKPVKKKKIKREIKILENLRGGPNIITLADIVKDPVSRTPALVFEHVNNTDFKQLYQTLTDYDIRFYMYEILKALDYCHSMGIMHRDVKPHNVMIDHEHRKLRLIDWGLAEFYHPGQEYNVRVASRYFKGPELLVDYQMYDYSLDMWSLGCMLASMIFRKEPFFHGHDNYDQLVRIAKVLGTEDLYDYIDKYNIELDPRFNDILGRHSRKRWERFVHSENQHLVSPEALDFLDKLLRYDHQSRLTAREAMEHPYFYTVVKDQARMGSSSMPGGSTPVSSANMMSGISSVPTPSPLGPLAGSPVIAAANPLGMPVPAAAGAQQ
REPORTED_PROPERTY: pIC50
To interpret pIC50, take it as minus log10 of a concentration measured in moles per litre.

Specify reported pIC50 for the compound shown: "O=C(O)c1ccc2cc1OCCOCCNc1ccn3ncc-2c3n1"
5.24

Where do these numbers come from? They come from paper doi:10.1101/2020.06.27.175109v1.
